Reference source for all entries: paper PMC9144902

// Epc(f), cathodic potential lookup, one value per entry
Tested on: CT DNA
test: Study of the DNA-interaction by cyclic voltammetry
Format: binding, calf
condition.description: M(II)/M(I), 1:2 DMSO/buffer, absence of CT DNA
Method: Cyclic voltammetry was used to study the interaction of the complexes with CT DNA. An intercalative interaction will induce a positive shift for the electrochemical potential(s) of metal oxidation/reduction, whereas, in the case of electrostatic interaction, a negative shift in the potential(s) may occur. The cyclic voltammograms of the complexes in a 1:2 DMSO:buffer solution (0.33 mM) were recorded in the absence and presence of the CT DNA solution (Figure S13). […]
Answer with a number only, understood to be in mV.

Here's what some known entries look like.
>>> reported_value("CN1CCN(c2c(F)cc3c(=O)c(C(=O)[O-])cn(CCF)c3c2F)CC1.CN1CCN(c2c(F)cc3c(=O)c(C(=O)[O-])cn(CCF)c3c2F)CC1.[Mn+2].c1ccc(Nc2ccccn2)nc1 [complex 10, [Mn(flrx)2(bipyam)]]")
"−706"
>>> reported_value("CN1CCN(c2c(F)cc3c(=O)c(C(=O)[O-])cn(CCF)c3c2F)CC1.[Cl-].[Cu+2].c1ccc(Nc2ccccn2)nc1 [complex 7, [Cu(flrx)(bipyam)Cl]]")
"−729"
>>> reported_value("CN1CCN(c2c(F)cc3c(=O)c(C(=O)[O-])cn(CCF)c3c2F)CC1.CN1CCN(c2c(F)cc3c(=O)c(C(=O)[O-])cn(CCF)c3c2F)CC1.[Mn+2].c1ccc(-c2ccccn2)nc1 [complex 9, [Mn(flrx)2(bipy)]]")
"−701"
>>> reported_value("CN1CCN(c2c(F)cc3c(=O)c(C(=O)[O-])cn(CCF)c3c2F)CC1.CN1CCN(c2c(F)cc3c(=O)c(C(=O)[O-])cn(CCF)c3c2F)CC1.[Co+2].c1ccc(Nc2ccccn2)nc1 [complex 16, [Co(flrx)2(bipyam)]]")
"−729"

Enquiry: Suppose we examine the compound CN1CCN(c2c(F)cc3c(=O)c(C(=O)[O-])cn(CCF)c3c2F)CC1.CN1CCN(c2c(F)cc3c(=O)c(C(=O)[O-])cn(CCF)c3c2F)CC1.[Mn+2].c1cnc2c(c1)ccc1cccnc12 [complex 11, [Mn(flrx)2(phen)]] ; what Epc(f), cathodic potential value has been reported?
Return: −706

Enquiry: // same read-out, input: CN1CCN(c2c(F)cc3c(=O)c(C(=O)[O-])cn(CCF)c3c2F)CC1.CN1CCN(c2c(F)cc3c(=O)c(C(=O)[O-])cn(CCF)c3c2F)CC1.[Ni+2].c1ccc(Nc2ccccn2)nc1 [complex 18, [Ni(flrx)2(bipyam)]]
Return: −695

Enquiry: // same read-out, input: CN1CCN(c2c(F)cc3c(=O)c(C(=O)[O-])cn(CCF)c3c2F)CC1.[Cl-].[Cu+2].c1ccc(-c2ccccn2)nc1 [complex 6, [Cu(flrx)(bipy)Cl]]
Return: −710

====

target.or.test.system: human serum albumin (HSA) (Homo sapiens)
Sequence (P02768 25-609): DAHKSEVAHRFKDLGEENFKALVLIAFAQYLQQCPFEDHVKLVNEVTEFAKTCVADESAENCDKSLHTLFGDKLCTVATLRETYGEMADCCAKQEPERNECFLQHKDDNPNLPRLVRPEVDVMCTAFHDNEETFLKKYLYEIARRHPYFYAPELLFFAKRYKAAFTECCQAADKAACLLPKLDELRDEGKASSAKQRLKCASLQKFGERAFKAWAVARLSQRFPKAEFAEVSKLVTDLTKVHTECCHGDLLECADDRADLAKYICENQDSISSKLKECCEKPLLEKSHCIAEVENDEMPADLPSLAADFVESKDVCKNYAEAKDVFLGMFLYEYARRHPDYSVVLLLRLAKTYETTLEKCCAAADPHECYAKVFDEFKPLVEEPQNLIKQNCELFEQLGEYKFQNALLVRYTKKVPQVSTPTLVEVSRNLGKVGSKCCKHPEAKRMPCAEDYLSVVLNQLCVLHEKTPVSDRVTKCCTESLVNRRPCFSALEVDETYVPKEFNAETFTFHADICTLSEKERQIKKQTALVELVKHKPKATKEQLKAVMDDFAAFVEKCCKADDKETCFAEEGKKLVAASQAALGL
test: Albumin binding by tryptophan fluorescence emission quenching
assay.metric: Kd

Enquiry: Suppose we examine the molecule CN1CCN(c2c(F)cc3c(=O)c(C(=O)O)cn(CCF)c3c2F)CC1 [Fleroxacin] ; what Kd value has been reported?
Return: 15.2 µM

====

Test system: Xanthomonas campestris ATCC 1395
test: Antimicrobial activity, MIC determination
Type: cell-based
condition.description: X. campestris; 24-h incubation, 28°C
Protocol: The in vitro antimicrobial activity of the compounds was evaluated by determining the minimum inhibitory concentration (MIC) against the Gram-positive microorganisms Staphylococcus aureus ATCC 6538 (S. aureus) and Bacillus subtilis ATCC 6633 (B. subtilis) and the Gram-negative microorganism Xanthomonas campestris ATCC 1395 (X. campestris). […]
// MIC lookup, one value per entry
Answer with a number only, understood to be in mg/L.

Here's what some known entries look like.
>>> reported_value("CN1CCN(c2c(F)cc3c(=O)c(C(=O)[O-])cn(CCF)c3c2F)CC1.CN1CCN(c2c(F)cc3c(=O)c(C(=O)[O-])cn(CCF)c3c2F)CC1.[Mn+2].c1ccc(-c2ccccn2)nc1 [complex 9, [Mn(flrx)2(bipy)]]")
16
>>> reported_value("CN1CCN(c2c(F)cc3c(=O)c(C(=O)[O-])cn(CCF)c3c2F)CC1.CN1CCN(c2c(F)cc3c(=O)c(C(=O)[O-])cn(CCF)c3c2F)CC1.CO.CO.[Ni+2] [complex 5, [Ni(flrx)2(MeOH)2]]")
16
>>> reported_value("CN1CCN(c2c(F)cc3c(=O)c(C(=O)[O-])cn(CCF)c3c2F)CC1.CN1CCN(c2c(F)cc3c(=O)c(C(=O)[O-])cn(CCF)c3c2F)CC1.[Co+2].c1ccc(-c2ccccn2)nc1 [complex 15, [Co(flrx)2(bipy)]]")
16
>>> reported_value("CN1CCN(c2c(F)cc3c(=O)c(C(=O)[O-])cn(CCF)c3c2F)CC1.CN1CCN(c2c(F)cc3c(=O)c(C(=O)[O-])cn(CCF)c3c2F)CC1.CO.CO.[Zn+2] [complex 3, [Zn(flrx)2(MeOH)2]]")
32
>>> reported_value("CN1CCN(c2c(F)cc3c(=O)c(C(=O)[O-])cn(CCF)c3c2F)CC1.[Cl-].[Cu+2].c1cnc2c(c1)ccc1cccnc12 [complex 8, [Cu(flrx)(phen)Cl]]")
8

Enquiry: I'm curious: which MIC was measured for CN1CCN(c2c(F)cc3c(=O)c(C(=O)[O-])cn(CCF)c3c2F)CC1.CN1CCN(c2c(F)cc3c(=O)c(C(=O)[O-])cn(CCF)c3c2F)CC1.[Ni+2].c1ccc(Nc2ccccn2)nc1 [complex 18, [Ni(flrx)2(bipyam)]] tested on Xanthomonas campestris ATCC 1395?
Return: 32

Enquiry: // same read-out, input: CN1CCN(c2c(F)cc3c(=O)c(C(=O)[O-])cn(CCF)c3c2F)CC1.CN1CCN(c2c(F)cc3c(=O)c(C(=O)[O-])cn(CCF)c3c2F)CC1.[Co+2].c1cnc2c(c1)ccc1cccnc12 [complex 17, [Co(flrx)2(phen)]]
Return: 16

Enquiry: // same read-out, input: CN1CCN(c2c(F)cc3c(=O)c(C(=O)[O-])cn(CCF)c3c2F)CC1.CN1CCN(c2c(F)cc3c(=O)c(C(=O)[O-])cn(CCF)c3c2F)CC1.O.O.[Mn+2] [complex 2, [Mn(flrx)2(H2O)2]]
Return: 16

Enquiry: // same read-out, input: CN1CCN(c2c(F)cc3c(=O)c(C(=O)[O-])cn(CCF)c3c2F)CC1.CN1CCN(c2c(F)cc3c(=O)c(C(=O)[O-])cn(CCF)c3c2F)CC1.[Mn+2].c1cnc2c(c1)ccc1cccnc12 [complex 11, [Mn(flrx)2(phen)]]
Return: 16
